# SYSTEM NAME: Recombinant human FAP (Homo sapiens)
# Construct: purchased R&D systems
# Sequence (Q12884 1-760): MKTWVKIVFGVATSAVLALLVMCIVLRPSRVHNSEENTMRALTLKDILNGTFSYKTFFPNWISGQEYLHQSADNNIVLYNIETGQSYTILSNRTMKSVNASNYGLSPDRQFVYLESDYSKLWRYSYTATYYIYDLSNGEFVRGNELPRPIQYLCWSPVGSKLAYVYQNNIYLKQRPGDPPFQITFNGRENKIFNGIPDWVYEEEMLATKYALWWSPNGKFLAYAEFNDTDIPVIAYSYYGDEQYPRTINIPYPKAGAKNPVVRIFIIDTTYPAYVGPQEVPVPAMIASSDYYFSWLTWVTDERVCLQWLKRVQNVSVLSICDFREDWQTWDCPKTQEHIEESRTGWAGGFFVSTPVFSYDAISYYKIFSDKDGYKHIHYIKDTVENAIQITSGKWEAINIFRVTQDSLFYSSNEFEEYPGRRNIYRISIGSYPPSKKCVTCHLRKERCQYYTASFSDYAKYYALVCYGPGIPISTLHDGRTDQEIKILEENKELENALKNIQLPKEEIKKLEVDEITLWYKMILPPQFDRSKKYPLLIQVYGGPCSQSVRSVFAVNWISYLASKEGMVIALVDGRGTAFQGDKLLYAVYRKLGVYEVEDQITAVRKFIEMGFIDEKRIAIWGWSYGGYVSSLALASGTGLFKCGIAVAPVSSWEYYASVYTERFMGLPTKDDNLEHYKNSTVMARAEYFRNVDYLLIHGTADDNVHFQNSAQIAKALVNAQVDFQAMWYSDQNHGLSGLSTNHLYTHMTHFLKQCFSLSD
# TEST SUMMARY: FAP inhibition, fluorogenic substrate Z-Gly-Pro-AMC
# Format: biochemical
# RUN CONDITIONS: recombinant human FAP, substrate Z-Gly-Pro-AMC
pIC50 values, listed per item
Would you please state pIC50, meaning minus log10 of the concentration in mol/L, as a bare number?

Worked examples, 5 compounds total:
- STRUCTURE STRING: "N#C[C@@H]1C[C@H](F)CN1C(=O)CN1CC[C@H](Nc2cccc3ncccc23)C1"
  SYSTEM NAME: "Recombinant human FAP (Homo sapiens)"
  pIC50: 8.92
- STRUCTURE STRING: "N#C[C@@H]1C[C@H](F)CN1C(=O)CN1CC[C@H](Nc2ccnc3c(C(F)(F)F)cccc23)C1"
  SYSTEM NAME: "Recombinant human FAP (Homo sapiens)"
  pIC50: 8.85
- STRUCTURE STRING: "N#C[C@@H]1C[C@H](F)CN1C(=O)CN1CC[C@H](Nc2cc(C(F)(F)F)cc3ncccc23)C1"
  SYSTEM NAME: "Recombinant human FAP (Homo sapiens)"
  pIC50: 9.00
- STRUCTURE STRING: "N#C[C@@H]1C[C@H](F)CN1C(=O)CN1CCC(Nc2cccc3ccncc23)CC1"
  SYSTEM NAME: "Recombinant human FAP (Homo sapiens)"
  pIC50: 7.85
- STRUCTURE STRING: "N#C[C@@H]1C[C@H](F)CN1C(=O)CN1CCC(Nc2cccc3sccc23)CC1"
  SYSTEM NAME: "Recombinant human FAP (Homo sapiens)"
  pIC50: 7.23

Query compound follows.
Reported pIC50 for N#C[C@@H]1C[C@H](F)CN1C(=O)CN1CC[C@@H](Nc2ccc3cccnc3c2)C1 was 7.94

====

# SYSTEM NAME: recombinant human PREP (Homo sapiens, UniProt P48147)
# Construct: purchased R&D System
# Sequence (P48147 1-710): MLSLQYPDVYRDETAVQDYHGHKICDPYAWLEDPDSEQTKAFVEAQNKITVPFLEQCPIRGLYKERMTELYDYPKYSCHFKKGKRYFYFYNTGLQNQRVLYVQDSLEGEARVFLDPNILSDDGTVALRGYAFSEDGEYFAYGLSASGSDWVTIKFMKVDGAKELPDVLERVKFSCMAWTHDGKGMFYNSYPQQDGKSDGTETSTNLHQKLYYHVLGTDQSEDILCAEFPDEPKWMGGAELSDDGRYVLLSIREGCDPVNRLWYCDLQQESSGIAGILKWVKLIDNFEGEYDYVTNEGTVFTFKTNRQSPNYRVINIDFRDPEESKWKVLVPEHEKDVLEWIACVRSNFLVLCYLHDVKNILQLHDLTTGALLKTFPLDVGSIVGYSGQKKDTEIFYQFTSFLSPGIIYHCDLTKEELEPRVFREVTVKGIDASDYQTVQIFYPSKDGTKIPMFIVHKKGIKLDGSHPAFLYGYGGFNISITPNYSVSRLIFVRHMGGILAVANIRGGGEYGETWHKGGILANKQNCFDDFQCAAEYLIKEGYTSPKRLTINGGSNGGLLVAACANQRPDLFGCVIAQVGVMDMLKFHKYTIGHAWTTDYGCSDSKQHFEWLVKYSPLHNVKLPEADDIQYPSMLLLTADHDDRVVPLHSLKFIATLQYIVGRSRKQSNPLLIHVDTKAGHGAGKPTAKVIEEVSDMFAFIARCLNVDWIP
# TEST SUMMARY: PREP inhibition, fluorogenic substrate Z-Gly-Pro-AMC
# Format: biochemical
# RUN CONDITIONS: Inhibitory Activity (IC50, nM) PREP, recombinant human PREP
IC50 vs 3000 nM: less than gives 1 (yes); not less than gives 0 (no).

These recorded examples may help you get a feel for the data.
- MOLECULE: "N#C[C@@H]1CCCN1C(=O)CN1CC[C@H](Nc2ccc(C(=O)Nc3ccccn3)c3ncccc23)C1 [Example 293]"
  CLASS NAME: "1 (yes)"
- MOLECULE: "N#C[C@@H]1C[C@H](F)CN1C(=O)CN1CCC(Nc2ccc(C(=O)Nc3ccccc3)c3ncccc23)CC1 [Example 394]"
  CLASS NAME: "1 (yes)"
- MOLECULE: "N#C[C@@H]1C[C@H](F)CN1C(=O)CN1CCC(Nc2cccc3ccncc23)CC1 [Example 342]"
  CLASS NAME: "0 (no)"
- MOLECULE: "CC(=O)Nc1ccc(N[C@H]2CCN(CC(=O)N3C[C@@H](F)C[C@H]3C#N)C2)c2cccnc12 [Example 297]"
  CLASS NAME: "0 (no)"
- MOLECULE: "N#C[C@@H]1CCCN1C(=O)CN1CC[C@H](Nc2cc(C(F)(F)F)cc3ncccc23)C1 [Example 238]"
  CLASS NAME: "0 (no)"
- MOLECULE: "N#C[C@@H]1C[C@H](F)CN1C(=O)CN1CC[C@@H](Nc2c(F)ccc3ncccc23)C1 [Example 173]"
  CLASS NAME: "1 (yes)"

stdin: Does this molecule meet the criterion IC50 < 3000 nM? CN(c1cnc2ccccc2c1)C1CCN(CC(=O)N2C[C@@H](F)C[C@H]2C#N)CC1 [Example 316]
stdout: 1 (yes)

stdin: Does this molecule meet the criterion IC50 < 3000 nM? N#C[C@@H]1C[C@H](F)CN1C(=O)CN1CC[C@H](Nc2c(F)ccc3ncccc23)C1 [Example 261]
stdout: 0 (no)

stdin: Does this molecule meet the criterion IC50 < 3000 nM? Cc1cnc2cccc(N[C@@H]3CCN(CC(=O)N4CCC[C@H]4C#N)C3)c2c1 [Example 208]
stdout: 0 (no)

stdin: Does this molecule meet the criterion IC50 < 3000 nM? CN(c1cccc2ncc(F)cc12)[C@H]1CCN(CC(=O)N2C[C@@H](F)C[C@H]2C#N)C1 [Example 156]
stdout: 1 (yes)

stdin: Does this molecule meet the criterion IC50 < 3000 nM? CCN(c1ccc2ncccc2c1)C1CCN(CC(=O)N2CCC[C@H]2C#N)CC1 [Example 303]
stdout: 1 (yes)

stdin: Does this molecule meet the criterion IC50 < 3000 nM? N#C[C@@H]1C[C@H](F)CN1C(=O)CN1CCC(Oc2ccnc3cc(F)ccc23)CC1 [Example 433]
stdout: 1 (yes)

stdin: Does this molecule meet the criterion IC50 < 3000 nM? CN(c1cc2ccccc2cn1)C1CCN(CC(=O)N2C[C@@H](F)C[C@H]2C#N)CC1 [Example 317]
stdout: 1 (yes)

stdin: Does this molecule meet the criterion IC50 < 3000 nM? Cc1ccc(N[C@H]2CCN(CC(=O)N3CCC[C@H]3C#N)C2)c2cccnc12 [Example 242]
stdout: 0 (no)

stdin: Does this molecule meet the criterion IC50 < 3000 nM? CN(c1ccc(C(F)(F)F)c2ncccc12)[C@H]1CCN(CC(=O)N2C[C@@H](F)C[C@H]2C#N)C1 [Example 159]
stdout: 1 (yes)

stdin: Does this molecule meet the criterion IC50 < 3000 nM? CCN(c1ccc2ncccc2c1)C1CCN(CC(=O)N2C[C@@H](F)C[C@H]2C#N)CC1 [Example 306]
stdout: 1 (yes)

stdin: Does this molecule meet the criterion IC50 < 3000 nM? N#Cc1ccc(N[C@H]2CCN(CC(=O)N3C[C@@H](F)C[C@H]3C#N)C2)c2cccnc12 [Example 267]
stdout: 1 (yes)

stdin: Does this molecule meet the criterion IC50 < 3000 nM? COc1ccc2nccc(O[C@H]3CCN(CC(=O)N4C[C@@H](F)C[C@H]4C#N)C3)c2c1 [Example 299]
stdout: 1 (yes)
